test: Plasma pharmacokinetics after oral administration of YCHT in control (normal) rats, UHPLC-MS/MS; format: in vivo, Sprague-Dawley rats; conditions: Sprague-Dawley, rat, in vivo, po, 60 g/kg
Overview of recorded MRT inf for various compounds
parameter measured: MRT inf (h)

chemical string | numeric value
COc1cc2ccc(=O)oc2cc1O | 6.9
O=C(O)c1cc(O)c2c(c1)C(=O)c1cccc(O)c1C2=O | 5.38
COc1cc(O)c2c(c1)C(=O)c1cc(C)cc(O)c1C2=O | 3.54
Cc1cc(O)c2c(c1)C(=O)c1cccc(O)c1C2=O | 3.34

---

experiment: Plasma pharmacokinetics after oral administration of YCHT in model (CCl4-induced acute liver injury) rats, UHPLC-MS/MS; conditions: Sprague-Dawley, rat, plasma, po, 60 g/kg
parameter measured: MRT last (h)

chemical string | numeric value
COc1cc2ccc(=O)oc2cc1OC | 3.94
